The reported numbers originate from patent US9815832B2.

# target.or.system: human recombinant PDE4B (Homo sapiens (Human), UniProt Q07343, S133E/S654A/S659A/S661A)
# Sequence (Q07343 122-736 S133E/S654A/S659A/S661A): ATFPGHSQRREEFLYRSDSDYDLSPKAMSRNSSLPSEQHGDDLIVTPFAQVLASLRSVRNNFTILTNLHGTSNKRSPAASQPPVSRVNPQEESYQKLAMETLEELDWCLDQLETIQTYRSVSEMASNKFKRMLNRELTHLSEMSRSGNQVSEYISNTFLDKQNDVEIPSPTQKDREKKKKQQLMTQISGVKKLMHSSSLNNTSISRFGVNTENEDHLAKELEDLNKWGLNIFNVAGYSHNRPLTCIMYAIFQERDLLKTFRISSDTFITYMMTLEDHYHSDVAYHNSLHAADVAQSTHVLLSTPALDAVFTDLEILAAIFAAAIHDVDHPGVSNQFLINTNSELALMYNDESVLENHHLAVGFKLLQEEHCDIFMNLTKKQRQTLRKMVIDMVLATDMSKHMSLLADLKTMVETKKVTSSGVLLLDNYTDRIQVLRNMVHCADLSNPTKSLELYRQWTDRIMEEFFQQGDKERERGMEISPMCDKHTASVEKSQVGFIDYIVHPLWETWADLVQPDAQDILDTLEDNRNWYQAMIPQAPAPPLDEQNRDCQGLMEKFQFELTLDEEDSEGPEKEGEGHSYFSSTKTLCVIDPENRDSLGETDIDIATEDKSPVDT
# condition.description: read-out: Human PDE4B FL
Where a name gives a salt, the structure may show the parent alone.
Item-by-item account of pIC50
Worth noting: pIC50 values are minus log10 of concentrations stated in mol/L.

Use the examples below as a reference point.
O=C(NC1CC1)c1nc2cccnc2n1-c1ccc2c(c1)COC2
5.80
Cc1cc(-n2c(C(=O)NC3CC3)nc3cccnc32)c(Cl)cc1F
4.78
Cc1cc(F)ccc1-n1c(C(=O)NC2CC2)nc2cccnc21
5.92
Cc1ccc(-n2c(C(=O)NC3CC3)nc3cccnc32)c(C)c1
5.99

For O=C(NC1CC1)c1nc2cccnc2n1C1Cc2ccccc2C1 the compound record lists pIC50 as 5.90

For O=C(NC1CC1)c1nc2cccnc2n1-c1ccc(Cl)cc1F the compound record lists pIC50 as 6.20

For Cc1ccc(-n2c(C(=O)NC3CC3)nc3cccnc32)cc1 the compound record lists pIC50 as 6.65

For CCNC(=O)c1nc2cccnc2n1-c1cncc(Cl)c1 the compound record lists pIC50 as 5.08

For COc1cc(-n2c(C(=O)NC3CC3)nc3cccnc32)ccc1C the compound record lists pIC50 as 6.47

For O=C(c1nc2cccnc2n1-c1cncc(Cl)c1)N1CCC1 the compound record lists pIC50 as 6.33

For O=C(c1nc2cccnc2n1-c1ccc(Cl)cc1)N1CCC1 the compound record lists pIC50 as 6.71

For O=C(NC1CC1)c1nc2cccnc2n1-c1ccc2c(c1)CCC2 the compound record lists pIC50 as 6.69

For O=C(c1nc2cccnc2n1-c1ccc(Cl)cc1F)N1CC(F)C1 the compound record lists pIC50 as 6.04

For Cn1ccc(NC(=O)c2nc3cccnc3n2C2CCCC2)n1 the compound record lists pIC50 as 6.09

For Cc1ccc(-n2c(C(=O)N3CCC3)nc3cccnc32)cc1F the compound record lists pIC50 as 7.31

For Cn1ncc2ccc(-n3c(C(=O)NC4CC4)nc4cccnc43)cc21 the compound record lists pIC50 as 4.61

For O=C(NC1CC1)c1nc2cccnc2n1-c1ccc2ncsc2c1 the compound record lists pIC50 as 6.81

For N#Cc1ccc(-n2c(C(=O)NC3CC3)nc3cccnc32)cc1 the compound record lists pIC50 as 6.56

For O=C(NC1CC1)c1nc2cccnc2n1-c1cc(F)ccc1Cl the compound record lists pIC50 as 5.03

For Cc1cccc(-n2c(C(=O)NC3CC3)nc3cccnc32)c1 the compound record lists pIC50 as 6.38

For O=C(c1nc2cccnc2n1-c1ccc(Cl)c(F)c1)N1CC(F)C1 the compound record lists pIC50 as 7.37

For Cc1cc(Cl)ccc1-n1c(C(=O)NC2CC2)nc2cccnc21 the compound record lists pIC50 as 6.50

For CCCNC(=O)c1nc2cccnc2n1-c1ccc(Cl)cc1 the compound record lists pIC50 as 6.03

For COc1cc(-n2c(C(=O)NC3CC3)nc3cccnc32)ccc1F the compound record lists pIC50 as 6.52

For O=C(NC1CC1)c1nc2cccnc2n1-c1cccc(Cl)c1F [Example 78, trifluoroacetate salt] the compound record lists pIC50 as 6.41

For N#Cc1c(F)cc(-n2c(C(=O)NC3CC3)nc3cccnc32)cc1F the compound record lists pIC50 as 7.86

For O=C(NC1CC1)c1nc2cccnc2n1-c1ccc(F)c(F)c1 the compound record lists pIC50 as 7.46

For O=C(NC1CC1)c1nc2cccnc2n1-c1cncc(Cl)c1 the compound record lists pIC50 as 6.39

For O=C(NC1CC1)c1nc2cccnc2n1-c1ccc(F)cc1F the compound record lists pIC50 as 6.03

For Cc1ccc(Cl)c(-n2c(C(=O)NC3CC3)nc3cccnc32)c1 the compound record lists pIC50 as 5.03

For O=C(NC1CC1)c1nc2cccnc2n1-c1ccc(C(F)(F)F)cc1 the compound record lists pIC50 as 5.51

For COc1ccc(-n2c(C(=O)NC3CC3)nc3cccnc32)cc1OC the compound record lists pIC50 as 5.57

For O=C(NC1CC1)c1nc2cccnc2n1-c1cccc(F)c1 the compound record lists pIC50 as 6.73
